subject.of.test: human FGFR1c + KLB receptor complex on HEK293 iLite FGF21 reporter cells (human, UniProt P11362 22-822; Q86Z14 1-1044)
Sequence (P11362 22-822, chain 1 of 2): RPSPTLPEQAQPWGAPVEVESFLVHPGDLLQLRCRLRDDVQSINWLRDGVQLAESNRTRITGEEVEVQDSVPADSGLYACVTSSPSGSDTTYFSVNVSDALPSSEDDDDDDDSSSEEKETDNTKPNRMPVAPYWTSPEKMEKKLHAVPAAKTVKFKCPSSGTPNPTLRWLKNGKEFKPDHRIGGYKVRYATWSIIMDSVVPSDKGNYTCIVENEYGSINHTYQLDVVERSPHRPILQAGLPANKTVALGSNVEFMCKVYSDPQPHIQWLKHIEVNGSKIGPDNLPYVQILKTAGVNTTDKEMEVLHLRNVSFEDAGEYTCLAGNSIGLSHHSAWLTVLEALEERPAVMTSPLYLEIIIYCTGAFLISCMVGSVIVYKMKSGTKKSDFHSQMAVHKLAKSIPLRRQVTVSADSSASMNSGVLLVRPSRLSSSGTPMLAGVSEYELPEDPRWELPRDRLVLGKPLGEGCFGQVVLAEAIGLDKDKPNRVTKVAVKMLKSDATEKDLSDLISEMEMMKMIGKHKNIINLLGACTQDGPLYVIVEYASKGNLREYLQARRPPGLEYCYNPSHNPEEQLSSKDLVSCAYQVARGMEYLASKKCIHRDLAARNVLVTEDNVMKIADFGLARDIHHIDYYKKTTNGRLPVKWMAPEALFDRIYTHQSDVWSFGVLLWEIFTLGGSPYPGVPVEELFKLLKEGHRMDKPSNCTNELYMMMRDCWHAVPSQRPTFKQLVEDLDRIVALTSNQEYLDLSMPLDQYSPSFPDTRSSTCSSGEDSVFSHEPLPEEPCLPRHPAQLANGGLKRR
Sequence (Q86Z14 whole entry, chain 2 of 2): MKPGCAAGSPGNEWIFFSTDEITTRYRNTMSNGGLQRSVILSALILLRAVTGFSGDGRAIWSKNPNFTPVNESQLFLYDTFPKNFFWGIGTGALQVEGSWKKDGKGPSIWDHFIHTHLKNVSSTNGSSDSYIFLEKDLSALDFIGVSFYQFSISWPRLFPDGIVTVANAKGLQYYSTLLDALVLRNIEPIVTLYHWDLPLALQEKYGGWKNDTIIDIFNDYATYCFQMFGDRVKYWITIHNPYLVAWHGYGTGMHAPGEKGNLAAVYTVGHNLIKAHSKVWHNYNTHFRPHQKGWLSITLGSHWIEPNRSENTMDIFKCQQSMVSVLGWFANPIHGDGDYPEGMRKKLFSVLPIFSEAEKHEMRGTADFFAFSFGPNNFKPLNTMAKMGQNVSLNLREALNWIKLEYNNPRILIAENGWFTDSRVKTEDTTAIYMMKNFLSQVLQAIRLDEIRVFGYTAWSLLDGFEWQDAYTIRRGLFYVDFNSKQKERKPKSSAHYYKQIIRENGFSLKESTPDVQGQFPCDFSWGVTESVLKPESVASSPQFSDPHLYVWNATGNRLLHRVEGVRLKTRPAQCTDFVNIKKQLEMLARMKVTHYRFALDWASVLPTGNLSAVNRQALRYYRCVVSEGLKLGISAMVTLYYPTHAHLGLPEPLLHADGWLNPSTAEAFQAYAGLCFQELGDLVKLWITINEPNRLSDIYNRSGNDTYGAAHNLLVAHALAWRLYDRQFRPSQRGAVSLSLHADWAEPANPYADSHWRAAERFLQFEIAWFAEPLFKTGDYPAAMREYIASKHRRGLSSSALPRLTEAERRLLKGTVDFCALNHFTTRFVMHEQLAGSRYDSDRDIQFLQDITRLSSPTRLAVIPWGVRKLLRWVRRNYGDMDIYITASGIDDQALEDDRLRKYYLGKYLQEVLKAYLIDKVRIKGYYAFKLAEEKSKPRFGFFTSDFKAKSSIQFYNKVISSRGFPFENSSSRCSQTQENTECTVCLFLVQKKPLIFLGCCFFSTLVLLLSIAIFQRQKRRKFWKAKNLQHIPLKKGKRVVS
assay.summary: cell-based or functional assay
result.type: EC50

// known answers, use as guide
binder | result.type | result
Ab0408 (antibody, IgG4, V domains shown) VH: QVTLKESGPVLVKPTETLTLTCTVSGFSLNNARVGVSWIRQPPGKALEWLAWIFSNDEKSYSTSLKSRLTISKDTSKSQVVLTMTNMDPVDTATYYCARSVVTGGYYYEGMDVWGQGTTVTVSS VL: SYVLTQPPSVSVAPGQTARITCGGNNIGSESVHWYQQKPGQAPVLVVDDSDRPSGIPERFSGSNSGNTATLTISRVEAGDEADYYCQVFDGNSTHVVFGGGTKLTVLG | EC50 | > 100 nM
Ab0378 (antibody, IgG4, V domains shown) VH: QVTLKESGPVLVKPTETLTLTCTVSGFSLNNARVGVSWIRQPPGKALEWLASIWSNDEKSYSTSLKSRLTISKDTSKSQVVLTMTNMDPVDTATYYCARSVVTGGYYYEGMDVWGQGTTVTVSS VL: SYVLTQPPSVSVAPGQTARITCGGNNIGSESVHWYQQKPGQAPVLVVDDSDRPSGIPERFSGSNSGNTATLTISRVEAGDEADYYCQVFDGNSVHVVFGGGTKLTVLG | EC50 | > 100 nM
Ab0416 (antibody, IgG4, V domains shown, IgG4 PE) VH: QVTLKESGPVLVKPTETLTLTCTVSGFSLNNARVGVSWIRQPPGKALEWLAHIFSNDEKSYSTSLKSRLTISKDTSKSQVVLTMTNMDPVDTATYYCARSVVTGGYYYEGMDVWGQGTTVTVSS VL: SYVLTQPPSVSVAPGQTARITCGGSNIGSESVHWYQQKPGQAPVLVVYYESDRPSGIPERFSGSNSGNTATLTISRVEAGDEADYYCQVWEGESDHVVFGGGTKLTVLG | EC50 | 0.05 nM
Ab0377 (antibody, IgG4, V domains shown) VH: QVTLKESGPVLVKPTETLTLTCTVSGFSLNNARVGVSWIRQPPGKALEWLAHIWSNDEKSYSTSLKSRLTISKDTSKSQVVLTMTNMDPVDTATYYCARSVVTGGYYYEGMDVWGQGTTVTVSS VL: SYVLTQPPSVSVAPGQTARITCGGNNIGSESVHWYQQKPGQAPVLVVDDSDRPSGIPERFSGSNSGNTATLTISRVEAGDEADYYCQVFDGNSVHVVFGGGTKLTVLG | EC50 | > 100 nM

Batch of 6 binders: report EC50 for each.
1. Ab0391 (antibody, IgG4, V domains shown) VH: QVTLKESGPVLVKPTETLTLTCTVSGFSLNNARVGVSWIRQPPGKALEWLASIWSNDEKSYSTSLKSRLTISKDTSKSQVVLTMTNMDPVDTATYYCARSVVTGGYYYEGMDVWGQGTTVTVSS VL: SYVLTQPPSVSVAPGQTARITCGGNNIGSESVHWYQQKPGQAPVLVVDDSDRPSGIPERFSGSNSGNTATLTISRVEAGDEADYYCQVFDGNCSCVVFGGGTKLTVLG
2. Ab0379 (antibody, IgG4, V domains shown) VH: QVTLKESGPVLVKPTETLTLTCTVSGFSLNNARVGVSWIRQPPGKALEWLAHIWSNDEKSYSTSLKSRLTISKDTSKSQVVLTMTNMDPVDTATYYCARSVVTGGYYYEGMDVWGQGTTVTVSS VL: CYVLTQPPSVSVAPGQTARITCGGNNIGSESVHWYQQKPGQAPVLVVDDSDRPSGIPERFSGSNSGNTATLTISRVEAGDEADYYCQVFDGNCVHVVFGGGTKLTVLG
3. Ab0349 (antibody, IgG4, V domains shown) VH: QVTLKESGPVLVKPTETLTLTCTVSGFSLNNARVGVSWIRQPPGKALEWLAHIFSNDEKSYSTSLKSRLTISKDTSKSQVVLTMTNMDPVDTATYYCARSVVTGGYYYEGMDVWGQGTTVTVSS VL: SYVLTQPPSVSVAPGQTARITCGGSNIGSESVHWYQQKPGQAPVLVVYEESDRPSGIPERFSGSNSGNTATLTISRVEAGDEADYYCQVWTGSSDHVVFGGGTKLTVLG
4. Ab0398 (antibody, IgG4, V domains shown) VH: QVTLKESGPVLVKPTETLTLTCTVSGFSLNNARVGVSWIRQPPGKALEWLASIWSNDEKSYSTSLKSRLTISKDTSKSQVVLTMTNMDPVDTATYYCARSVVTGGYYYEGMDVWGQGTTVTVSS VL: CYVLTQPPSVSVAPGQTARITCGGNNIGSESVHWYQQKPGQAPVLVVDDSDRPSGIPERFSGSNSGNTATLTISRVEAGDEADYYCQVFDGNCAHVVFGGGTKLTVLG
5. Ab0372 (antibody, IgG4, V domains shown) VH: QVTLKESGPVLVKPTETLTLTCTVSGFSLNNARVGVSWIRQPPGKALEWLAWIFSNDEKSYSTSLKSRLTISKDTSKSQVVLTMTNMDPVDTATYYCARSVVTGGYYYEGMDVWGQGTTVTVSS VL: CYVLTQPPSVSVAPGQTARITCGGNNIGSESVHWYQQKPGQAPVLVVDDSDRPSGIPERFSGSNSGNTATLTISRVEAGDEADYYCQVHDGNCEHVVFGGGTKLTVLG
6. Ab0389 (antibody, IgG4, V domains shown) VH: QVTLKESGPVLVKPTETLTLTCTVSGFSLNNARVGVSWIRQPPGKALEWLASIWSNDEKSYSTSLKSRLTISKDTSKSQVVLTMTNMDPVDTATYYCARSVVTGGYYYEGMDVWGQGTTVTVSS VL: CYVLTQPPSVSVAPGQTARITCGGNNIGSESVHWYQQKPGQAPVLVVDDSDRPSGIPERFSGSNSGNTATLTISRVEAGDEADYYCQVFDGNCSHVVFGGGTKLTVLG

Result string:
1: > 100 nM; 2: > 100 nM; 3: 10.7 nM; 4: > 100 nM; 5: > 100 nM; 6: > 100 nM
